System: Lucilia cuprina
assay-comment: Lucilia cuprina test
Type: in vivo
measurement-setup: application rate 100 ppm; L1 larvae; after 2 days
Would you kindly list efficacy (kill in %) for each of these compounds?
Note: unit % is implicit; provide only the numeric part.

efficacy (kill in %) lookup needed for Cn1nc(C(F)(F)C(F)(F)F)c(C(F)(F)F)c1-n1cc(-c2ccc(F)c(NC(=O)c3ccc4c(c3)OCO4)c2)cn1 [Example 1-093] , thanks.
100

efficacy (kill in %) lookup needed for Cc1ccc(C(=O)Nc2cc(-c3cnn(-c4c(C(F)(F)F)c(C(F)(F)C(F)(F)F)nn4C)c3)ccc2F)cc1F [Example 1-092] , thanks.
100

efficacy (kill in %) lookup needed for Cc1cc(C(=O)Nc2cc(-c3cnn(-c4c(C(F)(F)F)c(C(F)(F)C(F)(F)F)nn4C)c3)ccc2F)ccc1F [Example 1-091] , thanks.
100

efficacy (kill in %) lookup needed for Cn1nc(C(F)(F)C(F)(F)F)c(C(F)(F)F)c1-n1cc(-c2ccc(F)c(NC(=O)Cc3cccc(F)c3)c2)cn1 [Example 1-121] , thanks.
100

efficacy (kill in %) lookup needed for Cn1nc(C(F)(F)C(F)(F)F)c(C(F)(F)F)c1-n1cc(-c2cccc(NC(=O)c3cc(Cl)nc(Cl)c3)c2)cn1 [Example 1-011] , thanks.
100

efficacy (kill in %) lookup needed for Cn1nc(C(F)(F)C(F)(F)F)c(C(F)(F)F)c1-n1cc(-c2ccc(F)c(NC(=O)c3cccs3)c2)cn1 [Example 1-049] , thanks.
100

efficacy (kill in %) lookup needed for Cn1nc(C(F)(F)C(F)(F)F)c(C(F)(F)F)c1-n1cc(-c2cnc(Cl)c(NC(=O)c3ccc(F)cc3)c2)cn1 [Example 2-001] , thanks.
100

efficacy (kill in %) lookup needed for Cn1nc(C(F)(F)C(F)(F)F)c(C(F)(F)F)c1-n1cc(-c2ccc(F)c(NC(=O)C3(c4ccc(Cl)cc4)CCC3)c2)cn1 [Example 1-115] , thanks.
80

efficacy (kill in %) lookup needed for Cn1nc(C(F)(F)C(F)(F)F)c(C(F)(F)F)c1-n1cc(-c2ccc(F)c(NC(=O)C3CC3)c2)cn1 [Example 1-055] , thanks.
100

efficacy (kill in %) lookup needed for Cn1nc(C(F)(F)C(F)(F)F)c(C(F)(F)F)c1-n1cc(-c2ccc(Cl)c(NC(=O)c3ccccc3)c2)cn1 [Example 1-023] , thanks.
100

efficacy (kill in %) lookup needed for Cn1nc(C(F)(F)C(F)(F)F)c(C(F)(F)F)c1-n1cc(-c2ccc(F)c(NC(=O)c3cccc(F)c3F)c2)cn1 [Example 1-070] , thanks.
100

efficacy (kill in %) lookup needed for Cn1nc(C(F)(F)C(F)(F)F)c(C(F)(F)F)c1-n1cc(-c2cccc(NC(=O)c3ncccc3Cl)c2F)cn1 [Example 1-020] , thanks.
90

efficacy (kill in %) lookup needed for Cc1cc(C(=O)Nc2cc(-c3cnn(-c4c(C(F)(F)F)c(C(F)(F)C(F)(F)F)nn4C)c3)ccc2F)ccn1 [Example 1-087] , thanks.
100

* * *

Would you kindly list efficacy (kill in %) for each of these compounds?
Tested on: Lucilia cuprina
assay-comment: Lucilia cuprina test
Format: in vivo
measurement-setup: application rate 100 ppm; L1 larvae; after 2 days
Note: unit % is implicit; provide only the numeric part.

efficacy (kill in %) lookup needed for COc1cccc(C(=O)Nc2cc(-c3cnn(-c4c(C(F)(F)F)c(C(F)(F)C(F)(F)F)nn4C)c3)ccc2F)c1 , thanks.
100

efficacy (kill in %) lookup needed for Cn1nc(C(F)(F)C(F)(F)F)c(C(F)(F)F)c1-n1cc(-c2cccc(NC(=O)c3cccc(F)c3)c2)cn1 , thanks.
100

efficacy (kill in %) lookup needed for Cn1nc(C(F)(F)C(F)(F)F)c(C(F)(F)F)c1-n1cc(-c2cccc(NC(=O)C3(Cl)CC3)c2)cn1 , thanks.
100

* * *

Test system: Lucilia cuprina
assay-comment: Lucilia cuprina test
Assay type: in vivo
measurement-setup: application rate 100 ppm; L1 larvae; after 2 days
readout: efficacy (kill in %)
Note: unit % is implicit; provide only the numeric part.

Find efficacy (kill in %) (Lucilia cuprina) for the entry Cn1nc(C(F)(F)C(F)(F)F)c(C(F)(F)F)c1-n1cc(-c2cccc(NC(=O)c3cc(F)cc(F)c3)c2)cn1
100

Find efficacy (kill in %) (Lucilia cuprina) for the entry CCC(=O)Nc1cc(-c2cnn(-c3c(C(F)(F)F)c(C(F)(F)C(F)(F)F)nn3C)c2)ccc1F
95

Find efficacy (kill in %) (Lucilia cuprina) for the entry Cn1nc(C(F)(F)C(F)(F)F)c(C(F)(F)F)c1-n1cc(-c2ccc(F)c(NC(=O)C(C)(C)C)c2)cn1
100

Find efficacy (kill in %) (Lucilia cuprina) for the entry Cn1nc(C(F)(F)C(F)(F)F)c(C(F)(F)F)c1-n1cc(-c2ccc(F)c(NC(=O)Cc3cccs3)c2)cn1
100

* * *

Tested on: Boophilus microplus
assay-comment: Boophilus microplus injection test
Type: in vivo
measurement-setup: application rate 20 μg/animal; injection into abdomen; assessed after 7 days
Experimental: Boophilus microplus—Injection Test Solvent: dimethyl sulphoxide To produce an appropriate active ingredient formulation, 10 mg of active ingredient are mixed with 0.5 ml of solvent and the concentrate is diluted with solvent to the desired concentration. 1 μl of the active ingredient solution is injected into the abdomen of 5 engorged adult female cattle ticks (Boophilus microplus). […] Efficacy is assessed after 7 days by laying of fertile eggs. […]
Would you kindly list efficacy (laying of fertile eggs) for each of these compounds?
Note: unit % is implicit; provide only the numeric part.

efficacy (laying of fertile eggs) lookup needed for Cc1cn(CC(=O)Nc2cc(-c3cnn(-c4c(C(F)(F)F)c(C(F)(F)C(F)(F)F)nn4C)c3)ccc2F)nc1C(F)(F)F [Example 1-112] , thanks.
95

efficacy (laying of fertile eggs) lookup needed for CN(C)C(=O)C(=O)Nc1cc(-c2cnn(-c3c(C(F)(F)F)c(C(F)(F)C(F)(F)F)nn3C)c2)ccc1F [Example 1-127] , thanks.
100

efficacy (laying of fertile eggs) lookup needed for Cn1nc(C(F)(F)C(F)(F)F)c(C(F)(F)F)c1-n1cc(-c2cnc(Cl)c(NC(=O)c3ccc(F)cc3)c2)cn1 [Example 2-001] , thanks.
100

efficacy (laying of fertile eggs) lookup needed for Cn1nc(C(F)(F)C(F)(F)F)c(C(F)(F)F)c1-n1cc(-c2cccc(NC(=O)C3CC3)c2)cn1 [Example 1-002] , thanks.
100

efficacy (laying of fertile eggs) lookup needed for Cn1nc(C(F)(F)C(F)(F)F)c(C(F)(F)F)c1-n1cc(-c2ccc(F)c(NC(=O)C(F)(F)C(F)F)c2)cn1 [Example 1-033] , thanks.
100

efficacy (laying of fertile eggs) lookup needed for COc1cc(C(=O)Nc2cc(-c3cnn(-c4c(C(F)(F)F)c(C(F)(F)C(F)(F)F)nn4C)c3)cnc2Cl)ccc1F [Example 2-007] , thanks.
100

* * *

Test system: Ctenocephalides felis
assay-comment: Ctenocephalides felis oral test
Format: in vivo
measurement-setup: application rate 100 ppm in citrated cattle blood; after 2 days
readout: efficacy (kill in %)
Note: unit % is implicit; provide only the numeric part.

efficacy (kill in %) lookup needed for Cn1nc(C(F)(F)C(F)(F)F)c(C(F)(F)F)c1-n1cc(-c2ccc(F)c(NC(=O)C3(c4ccc(Cl)cc4)CCC3)c2)cn1 [Example 1-115] , thanks.
90

efficacy (kill in %) lookup needed for Cc1oncc1C(=O)Nc1cc(-c2cnn(-c3c(C(F)(F)F)c(C(F)(F)C(F)(F)F)nn3C)c2)ccc1F [Example 1-081] , thanks.
100

efficacy (kill in %) lookup needed for Cn1nc(C(F)(F)C(F)(F)F)c(C(F)(F)F)c1-n1cc(-c2cccc(NC(=O)c3ccsc3)c2)cn1 [Example 1-016] , thanks.
100

efficacy (kill in %) lookup needed for CC(C)C(=O)Nc1cc(-c2cnn(-c3c(C(F)(F)F)c(C(F)(F)C(F)(F)F)nn3C)c2)ccc1F [Example 1-064] , thanks.
100

efficacy (kill in %) lookup needed for Cc1ccc(C(=O)Nc2cc(-c3cnn(-c4c(C(F)(F)F)c(C(F)(F)C(F)(F)F)nn4C)c3)ccc2F)cc1 [Example 1-060] , thanks.
100

efficacy (kill in %) lookup needed for Cn1nc(C(F)(F)C(F)(F)F)c(C(F)(F)F)c1-n1cc(-c2ccc(F)c(NC(=O)c3cccnc3)c2)cn1 [Example 1-085] , thanks.
100

efficacy (kill in %) lookup needed for Cn1nc(C(F)(F)C(F)(F)F)c(C(F)(F)F)c1-n1cc(-c2ccc(F)c(NC(=O)Cc3cccc(C(F)(F)F)c3)c2)cn1 [Example 1-116] , thanks.
100

* * *

Would you kindly list efficacy (kill in %) for each of these compounds?
Tested on: Ctenocephalides felis
assay-comment: Ctenocephalides felis oral test
Type: in vivo
measurement-setup: application rate 100 ppm in citrated cattle blood; after 2 days
Note: unit % is implicit; provide only the numeric part.

efficacy (kill in %) lookup needed for COC1CCC(C(=O)Nc2cc(-c3cnn(-c4c(C(F)(F)F)c(C(F)(F)C(F)(F)F)nn4C)c3)ccc2F)CC1 (mixture of isomers) , thanks.
100

efficacy (kill in %) lookup needed for Cn1nc(C(F)(F)C(F)(F)F)c(C(F)(F)F)c1-n1cc(-c2ccc(F)c(NC(=O)c3cccc(C(F)(F)F)c3)c2)cn1 , thanks.
95

efficacy (kill in %) lookup needed for COc1cc(C(=O)Nc2cc(-c3cnn(-c4c(C(F)(F)F)c(C(F)(F)C(F)(F)F)nn4C)c3)ccc2F)ccc1C , thanks.
100
